# procedureText: Plasma pharmacokinetics after IV or PO administration
# Format: in vivo, male C57BL/6J mice
# measurementContext: male, C57BL/6J, mouse; PO 10 mg kg^−1, plasma, n = 3
reportedProperty: Tmax (h)

# compound, unitAbbreviation, reportedMeasurement
measured = [
    ("N#Cc1cccc(-n2nnc(-c3cccnc3)n2)c1 [SR9883]", "h", 1.08),
]

# credit: paper PMC11428108
